# Test system: Amaranthus retroflexus
# assay.details: Herbicidal activity against Amaranthus retroflexus assessed as inhibition of fresh weed plant weight at 187.5 g/ha using pre-emergence treatment protocol
# Format: functional
Rule: inhibition at 187.5 g/ha under 90% gives label 0, otherwise label 1.

Observe how each entry below is paired with its result.
C#CCN1C(=O)COc2cc(F)c(-n3nnc4nn(CCC)cc4c3=O)cc21 : label 1
C#CCN1C(=O)COc2cc(F)c(-n3nnc4c(cnn4C)c3=O)cc21 : label 0
C#CCN1C(=O)COc2cc(F)c(-n3nnc4c(cnn4CC=C)c3=O)cc21 : label 1
C=CCOc1cc(-n2nnc3nn(CC=C)cc3c2=O)c(F)cc1Cl : label 1
C#CCN1C(=O)COc2cc(F)c(N3C(=O)C4=C(CCCC4)C3=O)cc21 : label 1

q: Could you verify whether the entry `C=CCOc1cc(-n2nnc3c(cnn3CC=C)c2=O)c(F)cc1Cl` shows inhibition at 187.5 g/ha of no less than 90%?
a: label 0

q: Could you tell me if the measured inhibition at 187.5 g/ha of `C#CCN1C(=O)COc2cc(F)c(-n3nnc4nn(CC=C)cc4c3=O)cc21` reaches 90% or more?
a: label 1

q: Determine whether this molecule has inhibition at 187.5 g/ha no lower than 90%: `C=CCN1C(=O)COc2cc(F)c(-n3nnc4nn(CC=C)cc4c3=O)cc21`
a: label 1

q: Entry `C#CCOc1cc(-n2nnc3nn(CC=C)cc3c2=O)c(F)cc1Cl` : is its inhibition at 187.5 g/ha no less than 90%?
a: label 0

q: Determine whether measured inhibition at 187.5 g/ha meets or exceeds 90% for `C=CCN1C(=O)COc2cc(F)c(-n3nnc4c(cnn4CCC)c3=O)cc21`
a: label 0
